biological target: Human plasma kallikrein (Homo sapiens (Human)); assay: Kallikrein Assay (fluorogenic substrate Acetyl-K-P-R-AFC); conditions: Plasma Kallikrein (PKal)
Sequence (P03952 391-638): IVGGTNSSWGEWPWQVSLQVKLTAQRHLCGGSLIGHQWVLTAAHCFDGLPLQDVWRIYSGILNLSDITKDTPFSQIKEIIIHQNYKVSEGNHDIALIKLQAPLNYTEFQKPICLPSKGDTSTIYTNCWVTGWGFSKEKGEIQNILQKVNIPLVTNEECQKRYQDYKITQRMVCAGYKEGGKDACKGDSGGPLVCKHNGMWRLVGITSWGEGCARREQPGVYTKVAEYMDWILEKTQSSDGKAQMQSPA
Sequence (P03952 20-390 partner): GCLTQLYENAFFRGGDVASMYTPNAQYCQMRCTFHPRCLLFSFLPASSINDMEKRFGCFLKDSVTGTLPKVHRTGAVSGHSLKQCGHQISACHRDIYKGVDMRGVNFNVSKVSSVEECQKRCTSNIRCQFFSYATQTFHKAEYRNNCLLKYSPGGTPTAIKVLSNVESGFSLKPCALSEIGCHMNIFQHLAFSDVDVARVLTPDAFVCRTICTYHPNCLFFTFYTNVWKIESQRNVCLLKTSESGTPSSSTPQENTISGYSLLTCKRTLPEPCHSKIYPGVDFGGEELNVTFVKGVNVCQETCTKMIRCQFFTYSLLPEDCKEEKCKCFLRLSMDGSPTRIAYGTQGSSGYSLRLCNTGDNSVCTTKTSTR
pIC50: −log10 of the molar value.
QUANTITY_MEASURED: pIC50

Answered examples (3):
{"COMPOUND": "Cc1nc(C(C)n2cc(NC(=O)c3cncc(-c4c(C(F)F)ccc(Cl)c4F)n3)cn2)ncc1N1C[C@H]2C[C@H]2C1=O (single isomer, unassigned) [Example 3]", "pIC50": 9.00}
{"COMPOUND": "Cc1nc(C(C)n2cc(NC(=O)c3cncc(-c4c(C(F)(F)F)ccc(Cl)c4F)n3)cn2)cnc1N1C[C@H]2C[C@H]2C1=O (single isomer, unassigned) [Example 19]", "pIC50": 8.43}
{"COMPOUND": "Cc1c(C(C)n2cc(NC(=O)c3cncc(-c4c(C(F)F)ccc(Cl)c4F)n3)cn2)cnc(N2C[C@H]3C[C@H]3C2=O)c1C (single isomer, unassigned) [Example 153]", "pIC50": 8.70}

I. Cc1c(C(C)n2cc(NC(=O)c3nc(-c4c(C(F)F)ccc(Cl)c4F)cnc3CO)cn2)cnc(N2C[C@H]3C[C@H]3C2=O)c1C (single isomer, unassigned) [Example 202]
II. CC(c1cnc(N2C[C@H]3C[C@H]3C2=O)c2c1OCO2)n1cc(NC(=O)c2cncc(-c3c(C(F)F)ccc(Cl)c3F)n2)cn1 (single isomer, unassigned) [Example 251]
Compare reported pIC50 values for I and II . Which is lower? Identify your pick by its label.
II
(II: 9.00, I: 9.52)
